The measurements presented in this section are drawn from the supplement of paper PMC10567573.

B1: SFRS1 (parent)
chain: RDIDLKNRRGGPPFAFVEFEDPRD

Variants of: B1
Assay Name: protein stability index of a GFP-peptide fusion (GPS, HEK-293T) (PSI 1-6); higher = more stable;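 note: lentivirally expressed fusions sorted by FACS into six bins by GFP to DsRed ratio, PSI derived from sequencing read proportions per bin multiplied by bin number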
Measurement Setup: c terminus: a fixed tail appended
protein stability index values, listed per item
Give the figure by itself; no unit, no explanation.

Example variants with recorded protein stability index:
1. G11L : 2.21
2. P12L : 3.5
3. L5G : 3.74

Let us examine a further case.
Q: Query (variant): `P22K` ; field requested: protein stability index
Ans: 4.09
